Recorded values, source patent US20260232732A1.

This listing pairs binders with measured OD450.
- assay-target: T1, naked peptide SSMEDYVNFN (human)
- T1 peptide: SSMEDYVNFN
- test-summary: ELISA naked peptide; scFv 1 ug/mL; repI

binder	OD450
CCR9_HUM2 scFv (humanized anti-CCR9 scFv, SEQ ID NO: 17 with C-terminal 6xHis tag) (scFv) scFv: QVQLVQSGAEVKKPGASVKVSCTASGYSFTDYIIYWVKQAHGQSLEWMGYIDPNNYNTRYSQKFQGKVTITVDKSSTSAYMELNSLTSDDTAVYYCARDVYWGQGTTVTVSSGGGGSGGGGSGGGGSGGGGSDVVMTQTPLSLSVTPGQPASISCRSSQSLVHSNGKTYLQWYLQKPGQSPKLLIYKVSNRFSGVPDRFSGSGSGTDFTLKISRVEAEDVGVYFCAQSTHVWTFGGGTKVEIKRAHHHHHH	0.9 OD
Comparative antibody 3 (Comp-3) scFv, SR_92R (Somovilla-Crespo et al. 2018), His-tagged (scFv) scFv: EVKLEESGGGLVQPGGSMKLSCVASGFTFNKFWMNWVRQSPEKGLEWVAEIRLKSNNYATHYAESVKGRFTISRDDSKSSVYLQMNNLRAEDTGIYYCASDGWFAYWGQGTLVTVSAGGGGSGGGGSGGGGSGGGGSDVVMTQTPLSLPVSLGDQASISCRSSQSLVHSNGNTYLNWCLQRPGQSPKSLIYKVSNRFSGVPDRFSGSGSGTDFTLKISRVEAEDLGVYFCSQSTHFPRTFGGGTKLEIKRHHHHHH	0.09 OD
Comparative antibody 1 (Comp-1) scFv, SEQ ID NO: 10 from WO2023/037125 A1, His-tagged (scFv) scFv: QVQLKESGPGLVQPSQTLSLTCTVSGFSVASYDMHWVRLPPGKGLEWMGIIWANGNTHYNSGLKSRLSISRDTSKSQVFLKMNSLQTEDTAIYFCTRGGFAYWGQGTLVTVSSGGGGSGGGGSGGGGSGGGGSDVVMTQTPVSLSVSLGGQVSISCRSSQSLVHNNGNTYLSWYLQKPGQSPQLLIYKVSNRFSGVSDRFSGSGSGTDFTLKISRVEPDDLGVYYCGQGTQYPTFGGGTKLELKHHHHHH	0.07 OD
